System: Candida albicans
Experiment: Antimicrobial activity against Candida albicans by microplate assay
Type: functional
Activity calls are given as the source filed them. The calls are words filed in the database; no cut-off is given here.
property: MIC

smilesText	MIC
CC1=CC(=O)C(C)=C2O[C@@]3(C[C@]12C)[C@@H](C)CC[C@H]1C(C)(C)[C@@H](O)CC[C@@]13C	32 µg/mL
COC(=O)[C@@H]1C(=O)C(C)=C2O[C@@]3(C[C@]2(C)[C@H]1C)[C@@H](C)[C@@H](O)C[C@H]1C(C)(C)[C@@H](O)CC[C@@]13C	inactive
CC1=CC(=O)C(C)=C2O[C@@]3(C[C@]12C)[C@@H](C)CC[C@H]1C(C)(C)C(=O)CC[C@@]13C	64 µg/mL
C[C@@H]1[C@H](O)[C@@H](C)/C=C/C=C/C=C/C=C/C=C/C=C/C=C/[C@H](O[C@@H]2O[C@H](C)[C@@H](O)[C@H](N)[C@@H]2O)C[C@@H]2O[C@](O)(C[C@@H](O)C[C@@H](O)[C@H](O)CC[C@@H](O)C[C@@H](O)CC(=O)O[C@H]1C)C[C@H](O)[C@H]2C(=O)O	2 µg/mL

### Prompt // lookup MIC | system=Candida albicans | key= CC1=C2O[C@@]3(C[C@]2(C)C(C)=C(C(=O)O)C1=O)[C@@H](C)CC[C@H]1C(C)(C)C(=O)CC[C@@]13C
### Response inactive

Attribution: ChEMBL document CHEMBL4431305
